- TARGET_ENTITY: 5-HT transporter (Rattus norvegicus, UniProt P31652)
- Construct: from tissue; host or cells: rat medulla and pons synaptosomes (P2 fraction)
- Sequence (P31652 whole entry): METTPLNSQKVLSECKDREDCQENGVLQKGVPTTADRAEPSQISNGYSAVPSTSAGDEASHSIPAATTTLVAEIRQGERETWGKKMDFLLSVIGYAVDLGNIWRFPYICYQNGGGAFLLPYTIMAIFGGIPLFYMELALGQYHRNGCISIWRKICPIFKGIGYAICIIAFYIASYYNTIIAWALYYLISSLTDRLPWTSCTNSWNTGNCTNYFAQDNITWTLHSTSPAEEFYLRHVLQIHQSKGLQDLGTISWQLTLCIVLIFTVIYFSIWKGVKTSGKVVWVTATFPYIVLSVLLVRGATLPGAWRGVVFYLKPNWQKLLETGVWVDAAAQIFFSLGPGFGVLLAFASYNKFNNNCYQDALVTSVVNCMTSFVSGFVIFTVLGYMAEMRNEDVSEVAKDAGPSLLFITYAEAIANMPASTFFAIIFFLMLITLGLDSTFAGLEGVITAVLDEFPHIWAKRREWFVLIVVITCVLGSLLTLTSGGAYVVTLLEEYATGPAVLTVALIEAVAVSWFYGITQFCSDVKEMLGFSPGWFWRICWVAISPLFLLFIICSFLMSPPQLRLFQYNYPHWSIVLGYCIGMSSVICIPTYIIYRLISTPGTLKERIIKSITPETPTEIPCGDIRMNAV
- METHOD: 5-HT uptake inhibition in rat brain synaptosomes (medulla and pons)
- Assay type: biochemical
Below: a set of entries, each annotated with reported inhibition at 1 µM.
MEASUREMENT_KIND: inhibition at 1 µM (%)

# COMPOUND, TARGET_ENTITY, MEASUREMENT_KIND, UNIT_ANNOTATION, ASSAY_VALUE
measured = [
    ("O=C(Nc1ncc2c(n1)CCN(C(=O)c1sc3ccccc3c1Cl)C2)c1cccs1", "5-HT transporter (Rattus norvegicus, UniProt P31652)", "inhibition at 1 µM", "%", 96),
    ("Cc1ccc(C(=O)Nc2ncc3c(n2)CCN(S(=O)(=O)c2cc(F)ccc2C)C3)cc1", "5-HT transporter (Rattus norvegicus, UniProt P31652)", "inhibition at 1 µM", "%", 36),
    ("O=C(Nc1ncc2c(n1)CCN(C(=O)c1ccc(F)cc1F)C2)c1ccc(Cl)cc1", "5-HT transporter (Rattus norvegicus, UniProt P31652)", "inhibition at 1 µM", "%", 33),
    ("CCc1ccc(C(=O)Nc2ncc3c(n2)CCN(S(=O)(=O)c2ccc4c(c2)CN(C(=O)C(F)(F)F)CC4)C3)cc1", "5-HT transporter (Rattus norvegicus, UniProt P31652)", "inhibition at 1 µM", "%", 43),
    ("O=C(Nc1ncc2c(n1)CCN(C(=O)C1=Cc3ccccc3OC1)C2)c1ccc(F)c(F)c1", "5-HT transporter (Rattus norvegicus, UniProt P31652)", "inhibition at 1 µM", "%", 32),
    ("CCc1ccc(C(=O)Nc2ncc3c(n2)CCN(C(=O)c2ccc(Cl)c(Cl)c2)C3)cc1", "5-HT transporter (Rattus norvegicus, UniProt P31652)", "inhibition at 1 µM", "%", 65),
    ("Cc1ccc([N+](=O)[O-])cc1S(=O)(=O)N1CCc2nc(NC(=O)c3ccccc3F)ncc2C1", "5-HT transporter (Rattus norvegicus, UniProt P31652)", "inhibition at 1 µM", "%", 54),
    ("CCc1ccc(C(=O)Nc2ncc3c(n2)CCN(S(=O)(=O)c2ccc(OC)cc2)C3)cc1", "5-HT transporter (Rattus norvegicus, UniProt P31652)", "inhibition at 1 µM", "%", 57),
    ("O=C(Nc1ncc2c(n1)CCN(C(=O)c1c(F)cccc1Cl)C2)c1cccc(Cl)c1", "5-HT transporter (Rattus norvegicus, UniProt P31652)", "inhibition at 1 µM", "%", 35),
    ("CCCCC(C)CCC(=O)N1CCc2nc(NC(=O)c3cccc4ccccc34)ncc2C1 (stereo not shown)", "5-HT transporter (Rattus norvegicus, UniProt P31652)", "inhibition at 1 µM", "%", 38),
    ("Cc1cc(C(=O)NC2CCc3nc(NC(=O)c4cccs4)ncc3C2)ccc1Br (stereo not shown)", "5-HT transporter (Rattus norvegicus, UniProt P31652)", "inhibition at 1 µM", "%", 56),
    ("CCCC(=O)Nc1ncc2c(n1)CCC(NS(=O)(=O)CC13CCC(CC1=O)C3(C)C)C2 (stereo not shown)", "5-HT transporter (Rattus norvegicus, UniProt P31652)", "inhibition at 1 µM", "%", 29),
    ("O=C(Nc1ncc2c(n1)CCC(NS(=O)(=O)Cc1ccccc1)C2)c1cccs1 (stereo not shown)", "5-HT transporter (Rattus norvegicus, UniProt P31652)", "inhibition at 1 µM", "%", 35),
    ("Cc1ccc(C(=O)Nc2ncc3c(n2)CCN(C(=O)COc2cccc(Cl)c2)C3)cc1", "5-HT transporter (Rattus norvegicus, UniProt P31652)", "inhibition at 1 µM", "%", 46),
    ("O=C(Nc1ncc2c(n1)CCN(C(=O)c1ccc(-c3cccs3)cc1)C2)c1cc(Cl)cc(Cl)c1", "5-HT transporter (Rattus norvegicus, UniProt P31652)", "inhibition at 1 µM", "%", 42),
    ("O=C(Nc1ncc2c(n1)CCN(C(=O)c1sc3ccccc3c1Cl)C2)c1ccccc1", "5-HT transporter (Rattus norvegicus, UniProt P31652)", "inhibition at 1 µM", "%", 92),
]
